System: OVCAR-4 ovarian
Test Details: NCI-60 one-dose screen, 48 h
Experimental Context: 10 µM unless noted
The panel holds about 83,000 compounds, 20% with a hit somewhere; the sample as a whole holds those more often. The source made the active and inactive calls. Rule for the calls: active = growth percent below 10; inactive = the rest.
Classes used: active, inactive

                                   molecule  class_name
0  COc1cccc(-c2cnco2)c1OCc1c(C)c(COc2c(OC)cccc2-c2cnco2)c(C)c(COc2c(OC)cccc2-c2cnco2)c1C      active
1                CN(C)CCOC(=O)Nc1ccc(Cl)cc1    inactive
2  CCN(CC)CCCC(C)NCc1ccccc1 (stereo not given)    inactive
3  C=CCO[C@H]1CO[C@H]2[C@@H]1OC[C@@H]2Oc1ccc(Nc2ccnc(Nc3ccc(O[C@H]4CO[C@H]5[C@@H]4OC[C@@H]5OCC=C)c(Cl)c3)n2)cc1Cl      active
4  O=C1c2ccccc2C2(c3ccc(O)cc3)c3ccccc3Oc3cccc1c32 (stereo not given)    inactive
5  Cc1c(C(N)=O)sc2nc(C)n(/N=c3\scc(-c4ccccc4)n3Cc3ccccc3)c(=O)c12    inactive
6  CCOc1ccc2nc(-c3cccc(OCC(=O)NC(C)C)c3)nc(Nc3ccc(-c4cn[nH]c4)cc3)c2c1      active
7  COc1cc(-c2ncn(/C=C\c3nnco3)n2)cc(C(F)(F)F)c1    inactive
8                        C#CC[C@H](N)C(=O)O    inactive
9  O=C1NN(C(=O)c2ccc(O)cc2)C(c2ccccc2)=N/C1=C\c1cn(-c2ccccc2)nc1-c1ccccc1    inactive

====

System: BT-549 breast
Test Details: NCI-60 one-dose screen, 48 h (100 = growth as untreated, 0 = no growth, -100 = all killed)
Experimental Context: 10 µM unless noted
This is part of a sample that, as a whole, favours compounds with a hit. Of some 83,000 tested, about 20% had one in any assay.
Measurement Kind: growth (%)

In [3]: df
Out[3]:
                                    compound  measured_target  value
 0  CCN(CC)c1ccc(Nc2ccc(CC(=O)c3ccccc3)cc2)cc1    BT-549 breast   82.4
 1      CC1(C)N=C(N)N=C(N)N1c1ccc(Cl)c(Cl)c1    BT-549 breast   42.9
 2       O=C1C=CC(=Nc2cc(Br)c(O)c(Br)c2)C=C1    BT-549 breast   55.1
 3  COc1ccc(-c2nnc(-c3ccc4c(c3)nc(-c3ccccc3)n4C3CCCCC3)o2)cc1    BT-549 breast   30.9
 4  O=C1C2=C(CCN(Cc3ccccc3)C2)N2CCN=C2N1Cc1ccc(C(F)(F)F)cc1    BT-549 breast     32
 5  CS(=O)(=O)c1ccc(-c2nc3cc(Cl)ccc3n2CC(=O)NO)cc1    BT-549 breast   97.6
 6  CC(/C=N/NC(=O)c1cc(-c2ccco2)[nH]n1)=C\c1ccccc1    BT-549 breast    101
 7  COc1cccc(-c2cnco2)c1OCc1c(C)c(COc2c(OC)cccc2-c2cnco2)c(C)c(COc2c(OC)cccc2-c2cnco2)c1C    BT-549 breast   39.2
 8  CNC(=O)NCC1OC(n2cnc3c(NC(=O)Nc4ccccc4)ncnc32)C2OC(C)(C)OC12 (stereo unspecified)    BT-549 breast   71.7
 9  COc1ccc(-c2nc3ncccn3c2/C=C/C(=O)c2cc(OC)c(OC)c(OC)c2)cc1    BT-549 breast   15.6
10  O=C(/C=C/C12c3ccccc3C(c3ccccc31)C1C(=O)N(c3ccc(Cl)cc3)C(=O)C12)c1ccccn1 (stereo unspecified)    BT-549 breast  -49.6
11  COc1ccc(Nc2ncc(Br)c(NCCCNC(=O)C3CCC3)n2)cc1    BT-549 breast  -33.9
12  CCOC(=O)c1sc2ccc(NCc3nc[nH]c3C)cc2c1NC(=O)c1cc(OC)c(OC)c(OC)c1    BT-549 breast   94.8
13  CC(C)n1nc(C#Cc2cccc(NC(=O)c3cccc(C(F)(F)F)c3)c2)c2c(N)ncnc21    BT-549 breast   9.72
14  COc1cc2cc(Oc3ccc(NC(=O)Nc4cc(C(F)(F)F)cc(C(F)(F)F)c4)cc3)c(C)nc2cc1OCCN1CCCCC1    BT-549 breast   94.3
15  Cc1cnc(Nc2ccc(OCCN3CCCC3)cc2)nc1NCc1ccco1    BT-549 breast   78.2

====

Each entry below carries its recorded growth.
Tested on: OVCAR-3 ovarian
Test Details: NCI-60 one-dose screen, 48 h (100 = growth as untreated, 0 = no growth, -100 = all killed)
Experimental Context: 10 µM unless noted
This is part of a sample that, as a whole, favours compounds with a hit. Of some 83,000 tested, about 20% had one in any assay.

Compound	growth [%]
CCCCn1c(=O)[nH]c(N)c(C(c2ccc(F)cc2)c2c(N)[nH]c(=O)n(CCCC)c2=O)c1=O	54
COC(=O)CNC(=O)C(=O)c1c(O)c(O)c(C(C)C)c2cc(C)c(-c3c(C)cc4c(C(C)C)c(O)c(O)c(C(=O)C(=O)NCC(=O)OC)c4c3O)c(O)c12	18
O[C@H]1CO[C@H]2[C@@H]1OC[C@@H]2Oc1ccc(Nc2ccnc(Nc3ccc(O[C@H]4CO[C@H]5[C@@H]4OC[C@@H]5O)c(Cl)c3)n2)cc1Cl	13.6
O=C(CCl)N1c2cccc3cccc(c23)N(C(=O)CCl)C1c1cn(-c2ccccc2)nc1-c1cccc([N+](=O)[O-])c1	61.6
c1ccc(-c2oc3ccccc3c2-c2ccccc2)cc1	100
Cc1c(Cl)cccc1NS(=O)(=O)c1ccccc1	100
Oc1[nH]c2ccccc2c1/C=c1/cc2c(c(-c3ccc(F)cc3)n1)=Nc1ccccc1-2	-77
CC(C)n1nc(C#Cc2cccc(O)c2)c2c(N)ncnc21	-19.6
C=C(C)[C@@H]1CC[C@@]2(C(=O)O)CC[C@]3(C)C(CCC4[C@@]5(C)CCC(OS(=O)(=O)c6ccccc6)C(C)(C)C5CC[C@]43C)C12 (some centres not stated)	50.8
COc1ccc(/C=C(\C#N)n2nnc3cc(F)c(F)cc32)c(OC)c1OC	58.2
Clc1ccc2[nH]c3c(NCCCN4CCOCC4)ncnc3c2c1	85.3
CCOC(=O)c1ccc(-c2ccc3cc(OC)ccc3c2)nc1C	106
CCN(CC)CCOC(=O)Nc1ccccc1Cl	108
CCOC(=O)c1c2c(c(C)n1C)-c1nn(Cc3ccc(OC)cc3)cc1CC2	108
Cc1nc2ccccc2c(/C=C/c2ccc(Cl)cc2)c1C(=O)/C=C/c1ccc(Cl)cc1	-70.6
C[C@@H]1C(=O)N(C[C@H](Cc2ccccc2)N(Cc2ccccc2)Cc2ccccc2)[C@]1(Cc1ccccc1)C(=O)OC(C)(C)C	54.5
CCN1CCN(c2ccc(Nc3cc(-c4cccnc4Nc4c(Cl)c(OC)cc(OC)c4Cl)ncn3)cc2)CC1	88.9

====

System: SN12C renal
Test Details: NCI-60 one-dose screen, 48 h
Experimental Context: 10 µM unless noted
About 83,000 compounds went through this panel and 20% of them were active in at least one assay; those are over-represented in the sample as a whole. Activity calls are given as the source filed them. How the source made its calls: active means growth percent below 10; inactive means the rest.
Classes used: active, inactive

>>> print(df.to_string())
                                   compound  measured_target  class_name
0  COc1ccc(C2CC(c3cnccn3)=NN2)cc1OC (configuration not stated)      SN12C renal    inactive
1  COc1ccc(-n2ncn(CCCCCCn3cnn(-c4ccc(OC)cc4)c3=O)c2=O)cc1      SN12C renal    inactive
2  CN(C)c1ccc2cc(-c3ccc(Cl)c(Cl)c3)c(N)nc2c1      SN12C renal    inactive
3   O=C1Nc2ccccc2/C1=N/N=C/c1c[nH]c2ccccc12      SN12C renal    inactive
4  COc1cc2oc(-c3cccc(C(=O)Nc4ccc(C)cc4)c3)cc(=O)c2c(OC)c1OC      SN12C renal    inactive
5     COc1ccc(/C=C2\COc3ccc(O)cc3C2=O)cc1OC      SN12C renal    inactive
6  C=C(C)[C@@H]1CC[C@]2(CO)CC[C@]3(C)[C@H](CC[C@@H]4[C@@]5(C)C=C(C#N)C(=O)C(C)(C)[C@@H]5CC[C@]43C)[C@@H]12      SN12C renal      active

====

Test system: HOP-92 NSCLC
Test Details: NCI-60 one-dose screen, 48 h
Experimental Context: 10 µM unless noted
Compounds without any hit were thinned out: in the full panel of roughly 83,000, 20% have a hit. Calls of active or inactive are those of the source. The calls were made as follows: active = growth percent below 10; inactive = the rest.
Classes used: active, inactive

>>> df
                                    compound  class_name
 0       CCN(CC)CCOC(=O)N1c2ccccc2Sc2ccccc21    inactive
 1  N=C(N)c1ccc(-c2ccc(-c3ccc(Cl)cc3Cl)o2)nc1    inactive
 2  CN1CCN(CCCOc2ccc3nc(Nc4cc(Cl)cc(Cl)c4)ccc3c2)CC1      active
 3  COc1ccc(O)c(-c2cc(-c3ccccc3)c(C#N)c(=O)[nH]2)c1    inactive
 4  Cc1[nH]c(-c2nc3ccccc3[nH]2)c(C)c1C(=O)N1CCc2sccc2C1    inactive
 5  C=C1C(=O)O[C@H]2[C@H]1CC/C(COC(=O)/C=C\C(=O)NCc1ccc(Cn3c(=O)sn(-c4ccc(OC)cc4)c3=O)cc1)=C\CC[C@@]1(C)O[C@@H]21      active
 6  COc1cc(-c2ccc(-c3ccc(C(=N)N)nc3)s2)cc(OC)c1OC    inactive
 7  NS(=O)(=O)c1cnccc1-n1ccc(=O)c(S(N)(=O)=O)c1    inactive
 8  CCCn1nc(-c2ccccc2)c2c(-c3ccccc3)onc2c1=O    inactive
 9   COc1ccc2cc(-c3ccc(C(=O)NN)c(C)n3)ccc2c1    inactive
10  CN1C[C@@H](c2ccc(Cl)cc2)[C@]2(NC(=S)N(c3ccccc3)C2=O)[C@@]12C(=O)NC1C=CC(Br)=C[C@H]12 (stereo not given in full)    inactive
11  Cl.Fc1c[c-]c(-c2ccccn2)c(F)c1.[Pt].c1ccc([PH+](C[PH+](c2ccccc2)c2ccccc2)c2ccccc2)cc1      active
12  COc1cc(/C=C/c2nc(Nc3ccc(S(=O)(=O)Nc4cc(C)on4)cc3)c3ccccc3n2)ccc1O    inactive
13          CC(=O)Nc1ccc2c(c1)Cc1c(F)cccc1-2    inactive
14                  Cc1ccc(NC(=O)C(Cl)Cl)cc1    inactive
15        Cc1c2c(cn1Cc1ccccc1)CCc1cn[nH]c1-2    inactive
16  CCN(CC)c1ccc(Nc2ccc(CC(=O)c3ccccc3)cc2)cc1    inactive
17  C=C1c2c(C)nn(-c3ccc(N)cc3)c2N(C)C23CC1C1(C)c4c(C)nn(-c5ccc(N)cc5)c4N(C)C(C)(CC12)C3 (stereo not given)    inactive
18    O=C(CCc1nc(-c2cccc(Cl)c2)no1)Nc1ccccn1    inactive
19  OC(c1cccc(OCc2ccccc2)c1)c1nnc(-c2ccccc2)o1 (stereo not given)    inactive

The reported numbers originate from PubChem BioAssay (NCI).
